- Test system: DeltatarO mutant
- PROTOCOL_TEXT: S. aureus survival, RN4220 and DeltatarO strains – OD600, teichoic acid synthesis inhibitors, primary screen (AID 463173)
- REPORTED_CONDITIONS: S. aureus RN4220 wild type/DeltatarO growth, OD600, 18 h, stronger effect = lower value, screened at 18.75 µg/mL (by protocol)
Screen size: about 52,000 compounds; about 4,300 (8.3%) were called active. The full list was thinned out, with actives kept by preference.
Friendly reminder: survival below 70% is rule met, at or above is rule not met.

>>> category_label("Cc1ccc(-n2ncc3c(NCC(C)C)ncnc32)c(C)c1")
"rule met"
>>> category_label("Cc1cccc(N2CCN(C(=O)Cn3ncc4c3-c3cc(C)ccc3OC4)CC2C)c1 (stereo not given)")
"rule met"
>>> category_label("Cc1cccc(N2CCN(C(=O)CCS(=O)(=O)c3ccc4c(c3)CC(=O)N4C)CC2C)c1 (stereo not given)")
"rule met"
>>> category_label("COc1cc(-c2noc(-c3ccc(NCc4ccco4)c([N+](=O)[O-])c3)n2)cc(OC)c1OC")
"rule met"
>>> category_label("Cc1ccc(-n2ncc3c(N(CC(C)C)CC(C)C)ncnc32)c(C)c1")
"rule not met"
>>> category_label("Cc1ccccc1NC(=O)c1sc2nc(-c3cc4ccccc4oc3=O)[nH]c(=O)c2c1C")
"rule met"
>>> category_label("COc1ccc(S(=O)(=O)NCCS(=O)(=O)N2CCN(c3ccccc3)CC2)cc1C")
"rule not met"
>>> category_label("Cc1ccc2c(c1)-c1c(cnn1CC(=O)N1CCN(c3cc(Cl)ccc3C)CC1)CO2")
"rule met"
>>> category_label("COc1ccc(NC(=O)c2sc3nc(-c4cc5cccc(OC)c5oc4=O)[nH]c(=O)c3c2C)cc1")
"rule met"
>>> category_label("Cc1ccc(NC(=O)c2sc3nc(-c4cc5ccccc5oc4=O)[nH]c(=O)c3c2C)c(C)c1")
"rule met"
>>> category_label("COc1ccc(-c2noc(-c3ccc(NCc4ccco4)c([N+](=O)[O-])c3)n2)cc1")
"rule met"
>>> category_label("CC(C)c1cnc2c(c1SCC(=O)Nc1cccc(F)c1)c(=O)n(C)c(=O)n2C")
"rule not met"
>>> category_label("O=C(O)c1ccc(Nc2nc3ccccc3c3nncn23)cc1")
"rule not met"
>>> category_label("Cc1ccc2c(c1)-c1c(cnn1CC(=O)N1CCN(c3ccccc3F)CC1)CO2")
"rule not met"
>>> category_label("CN1C(=O)Cc2cc(S(=O)(=O)CCC(=O)N3CCN(c4cccc(Cl)c4)CC3)ccc21")
"rule met"
>>> category_label("CCC(=O)N1CCc2cc(S(=O)(=O)CCC(=O)N3CCN(c4cccc(C)c4)C(C)C3)ccc21 (stereo not given)")
"rule not met"
>>> category_label("CCOC(=O)c1c(S(=O)(=O)N2CCCC(C(=O)Nc3cccc(C#N)c3)C2)c(C)n(C)c1C (stereo not given)")
"rule met"
>>> category_label("O=C(Cn1c(=O)c2cccn2c2ccccc21)NCc1ccccc1F")
"rule not met"

###

- Test system: DeltatarO mutant
- PROTOCOL_TEXT: S. aureus survival, RN4220 and DeltatarO strains – OD600, teichoic acid synthesis inhibitors, primary screen (AID 463173)
- REPORTED_CONDITIONS: S. aureus RN4220 wild type/DeltatarO growth, OD600, 18 h, stronger effect = lower value, screened at 18.75 µg/mL (by protocol)
Among all 52,000 compounds or so, about 4,300 (8.3%) were called active. The sample as a whole holds a higher share of actives than the screen did.
Friendly reminder: survival below 70% is Fulfilled, at or above is Not fulfilled.

>>> category_label("Cn1cc(S(=O)(=O)c2cccc(Cl)c2)c(=O)c2cc(F)c(N3CCN(c4ccccc4)CC3)cc21")
"Fulfilled"
>>> category_label("O=C(CSc1nccn1Cc1ccc(Cl)cc1)Nc1ccc2c(c1)OCCO2")
"Not fulfilled"
>>> category_label("Cc1cccc(S(=O)(=O)c2cn(Cc3ccc(F)cc3)c3cc(N4CCCCC4)c(F)cc3c2=O)c1")
"Fulfilled"
>>> category_label("CCn1cc(S(=O)(=O)c2cc(C)cc(C)c2)c(=O)c2cc(F)c(N3CCCC3)cc21")
"Not fulfilled"
>>> category_label("O=c1c(S(=O)(=O)c2ccccc2)cn(Cc2ccc(F)cc2)c2cc(N3CCCCC3)c(F)cc12")
"Not fulfilled"
>>> category_label("CCn1cc(C(=O)O)c(=O)c2cc(F)c(N3CCN(C(=O)c4ccccc4F)CC3)cc21")
"Fulfilled"
>>> category_label("COc1ccc(OC)c(CCNc2ncnc3onc(-c4ccc(Cl)cc4)c23)c1")
"Not fulfilled"
>>> category_label("O=C(Nc1ccc(N2CCN(C(=O)c3ccco3)CC2)cc1)c1ccccc1")
"Not fulfilled"

###

- Test system: DeltatarO mutant
- PROTOCOL_TEXT: S. aureus survival, RN4220 and DeltatarO strains – OD600, teichoic acid synthesis inhibitors, primary screen (AID 463173)
- REPORTED_CONDITIONS: S. aureus RN4220 wild type/DeltatarO growth, OD600, 18 h, stronger effect = lower value, screened at 18.75 µg/mL (by protocol)
Out of some 52,000 compounds screened, about 4,300 (8.3%) were called active. The sample as a whole holds a higher share of actives than the screen did.
READOUT_LABEL: survival

>>> reading("CC(C)c1nn2c(=O)cc(COC(=O)c3ccccc3Cl)nc2s1")
"88% (inactive)"
>>> reading("CCOc1ccccc1NC(=O)CN(c1cc(C)cc(C)c1)S(=O)(=O)c1c(C)nn(C)c1C")
"89% (inactive)"
>>> reading("COc1ccc(NC(=O)CC2C(=O)N(c3ccc(C)cc3)C(=O)N2CCc2ccccc2)cc1 (stereo not given)")
"62% (inactive)"
>>> reading("COc1ccc(N(CC(=O)Nc2cccc(Cl)c2C)S(=O)(=O)c2c(C)nn(C)c2C)cc1")
"62% (inactive)"
>>> reading("CCCCN(C)S(=O)(=O)c1cc(-c2cc(C)no2)ccc1C")
"84% (inactive)"
>>> reading("Cc1cccc(NC(=O)CN(c2ccc(C(C)C)cc2)S(=O)(=O)c2c(C)nn(C)c2C)c1C")
"42% (active)"
>>> reading("Cc1cc(C)cc(N(CC(=O)Nc2c(C)cc(C)cc2C)S(=O)(=O)c2c(C)nn(C)c2C)c1")
"-5% (active)"
>>> reading("CN(C)CCN(C(=O)c1ccco1)c1nc2c(F)cc(F)cc2s1")
"72% (inactive)"
>>> reading("Cc1ccc(CNC(=O)C2CCC(CNS(=O)(=O)c3ccc4c(c3)CCCC(=O)N4)CC2)cc1 (stereo not given)")
"79% (inactive)"
>>> reading("Cc1ccc(C)c(NC(=O)CSc2nnc3[nH]c(=O)cc(-c4ccccc4)n23)c1")
"105% (inactive)"

###

- Test system: DeltatarO mutant
- PROTOCOL_TEXT: S. aureus survival, RN4220 and DeltatarO strains – OD600, teichoic acid synthesis inhibitors, primary screen (AID 463173)
- REPORTED_CONDITIONS: S. aureus RN4220 wild type/DeltatarO growth, OD600, 18 h, screened at 18.75 µg/mL (by protocol)
Among all 52,000 compounds or so, about 4,300 (8.3%) were called active. Rule as the data show it: active = survival mostly below about 52% (no sharp cut-off); inactive = mostly above about 56%. The sample as a whole holds a higher share of actives than the screen did.
Outcomes: active, inactive

>>> category_label("Cc1cc(NC2C3CC4CC(C3)CC2C4)n2ncnc2n1 (stereo unspecified)")
"inactive"
>>> category_label("COc1ccc(OCC(=O)NCCS(=O)(=O)N2CCN(c3cccc(Cl)c3)CC2)cc1")
"inactive"
>>> category_label("COc1ccc(-n2ccnc(NCc3ccccc3Cl)c2=O)cc1OC")
"inactive"
>>> category_label("Cc1nc2c(C(=O)NCc3ccccc3)cnn2c(C)c1Cc1ccc(F)cc1")
"inactive"
>>> category_label("CCOC(=O)c1c(C)[nH]c(CCC(=O)NCc2ccccc2Cl)c1C")
"inactive"
>>> category_label("Cc1ccc(C)c(N2CCN(C(=O)c3ccc4c(c3)c(C)c(C)n4C)CC2)c1")
"inactive"
>>> category_label("COc1cc(NC(=O)CCCN2C(=O)CCn3nc(-c4cn(C)c5ccccc45)cc32)cc(OC)c1")
"inactive"
>>> category_label("Cc1cc(S(=O)(=O)Nc2cc3c(cc2N2CCOCC2)n(C)c(=O)c(=O)n3C)ccc1F")
"inactive"
>>> category_label("COc1ccc(-n2ccnc(NCc3ccc(Cl)cc3)c2=O)cc1")
"active"
>>> category_label("Cc1ccccc1CNC(=O)CCC(=O)N1CC2CCCN2c2ccccc21 (stereo unspecified)")
"inactive"
>>> category_label("Cc1ccc(-c2nnc(SC(C)C)n2-c2ccccc2)cc1")
"inactive"
>>> category_label("CCc1ccccc1NC(=O)C(Cc1cccc(OC)c1)c1nn[nH]n1 (stereo unspecified)")
"inactive"
>>> category_label("COc1ccc(-n2ccnc(NCc3cccs3)c2=O)cc1OC")
"inactive"
>>> category_label("COc1ccc(-n2ccnc(NCc3ccccc3OC)c2=O)cc1")
"inactive"
>>> category_label("Cc1ccc(-c2cn3c(n2)sc2cc(C(=O)NCCCc4ccccc4)ccc23)c(C)c1")
"inactive"
>>> category_label("CCn1c(=O)c2sccc2n2c(CCC(=O)N3CCN(c4ccc(C(C)=O)cc4)CC3)nnc12")
"inactive"
>>> category_label("CCOCCCNC(=O)C(Cc1ccccc1)NS(=O)(=O)c1ccc2c(c1)c(=O)n(C)c(=O)n2C (stereo unspecified)")
"inactive"
>>> category_label("COc1ccc(CCn2c(=O)c3cccnc3n(CC(=O)Nc3ccc(C)cc3C)c2=O)cc1OC")
"inactive"
>>> category_label("O=C1CN(C(=O)c2ccc(S(=O)(=O)N3CCCCC3)cc2)C(c2ccc(F)cc2)c2cc(Cl)ccc2N1 (stereo unspecified)")
"inactive"
>>> category_label("O=c1c(NCCc2ccc(Cl)cc2)nccn1-c1ccccc1")
"inactive"
>>> category_label("O=C(O)CCN1C(=O)CSC1=O")
"inactive"
